- Study target: human Gal-1 (hGal-1)
- Sequence (P09382 2-135 limits assumed): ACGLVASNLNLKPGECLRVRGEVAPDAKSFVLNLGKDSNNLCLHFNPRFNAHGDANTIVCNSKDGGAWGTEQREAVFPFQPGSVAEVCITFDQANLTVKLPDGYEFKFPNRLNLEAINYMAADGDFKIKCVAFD
- Assay: Competitive binding assay: binding of biotinylated hGal-1 to microplate-adsorbed asialofetuin (ASF)
- Reported conditions: Activities on hGal-1; mean values of several measurements
Endpoint name: IC50 (µM)

Some compounds with known IC50 results, for comparison:
- Compound: "Cc1ccc(-c2cn([C@H]3[C@@H](O)[C@@H](CO)O[C@H](Cc4cc(C5(C)COC5)no4)[C@@H]3O)nn2)c(F)c1F"
  IC50 [µM]: 3.78
- Compound: "CC(C)(C)c1cc(C[C@H]2O[C@H](CO)[C@H](O)[C@H](n3cc(-c4cc(F)c(F)c(F)c4)nn3)[C@H]2OCC(=O)N2CCC(O)CC2)no1"
  IC50 [µM]: 5.84
- Compound: "COc1ccc(C2=NOC(C[C@H]3O[C@H](CO)[C@H](O)[C@H](n4cc(-c5cc(F)c(F)c(F)c5)nn4)[C@H]3O)C2)cc1O (stereo partly drawn)"
  IC50 [µM]: 4.97

(P) CO[C@@H]1[C@@H](n2cc(-c3ccc(C)c(F)c3F)nn2)[C@@H](O)[C@@H](CO)O[C@@H]1Cc1cc(C2(CO)CC2)on1
(Q) CO[C@@H]1[C@@H](n2cc(-c3ccc(C#N)c(F)c3F)nn2)[C@@H](O)[C@@H](CO)O[C@@H]1Cc1cc(C(C)(C)C)no1
(R) CO[C@@H]1[C@@H](n2cc(-c3ccc(C)c(F)c3F)nn2)[C@@H](O)[C@@H](CO)O[C@@H]1Cc1cc([C@@H]2C[C@H]2O)on1
Hello, I need these entries ordered by IC50, highest reading first. Thanks! Provide the ranking by listing each label in its place in the requested order.
R, P, Q
